Molecular target: UniProt P18825
Test: In vitro activity assay to determine the inhibition of recombinant ADRA2C (CHO-K1 cells, aequorin bioluminescence)
Assay type: cell-based
Details: inhibition of noradrenaline-induced bioluminescence signal; some mean values from multiple determinations; read-out: ARα2C IC50
pIC50: −log10 of the molar value.
ASSAY METRIC: pIC50

Solved cases below.
CCc1nc(N2CCC(N3CCC[C@@H](C)C3)CC2)sc1C(=O)NCc1ncc(F)cc1F = 9.27
C[C@@H]1CCCN(C2CCN(c3ncc(C(=O)NCc4cc(F)ccc4F)s3)CC2)C1 = 7.65
C[C@@H]1CCCN(C2CCN(c3ncc(C(=O)Nc4ccc(F)c(C#N)c4)s3)CC2)C1 = 6.64
CO[C@@H]1CCCN(C2CCN(c3ncc(C(=O)NCc4ncc(F)cc4F)s3)CC2)C1 = 5.73
O=C(NCc1ncc(F)cc1F)c1cnc(N2CCC(N3CCCC4(C3)CC4(F)F)CC2)s1 (single isomer, unassigned; ent-2) [Example 131] = 8.72

a. O=C(NCc1ncc(F)cc1F)c1cnc(N2CCC(N3CCCC4(CC4)C3)CC2)s1
b. O=C(NCc1ncc(F)cc1F)c1cnc(N2CCC(N3CCC[C@@H](CF)C3)CC2)s1
c. C[C@@H]1CCCN(C2CCN(c3ncc(C(=O)NCc4ccc(F)cc4)s3)CC2)C1
# input Hey, quick one: sort these by pIC50, low to high? I'd appreciate it if you listed the labels in the requested order.
# output b, c, a

I. C[C@@H]1CCCN(C2CCN(c3ncc(C(=O)NCc4ncc(F)cc4F)s3)CC2F)C1 (single isomer, unassigned) [Example 52]
II. C[C@@H]1CCCN(C2CCN(c3ncc(C(=O)N(C)Cc4ncccc4F)s3)CC2)C1
# input Larger number for pIC50: I , or II ? Return value: the label identifying the chosen record.
# output I
(I: 8.17, II: 6.51)

---

Biological target: human ADRA2C receptor (Homo sapiens (Human), UniProt P18825)
Sequence (P18825 whole entry): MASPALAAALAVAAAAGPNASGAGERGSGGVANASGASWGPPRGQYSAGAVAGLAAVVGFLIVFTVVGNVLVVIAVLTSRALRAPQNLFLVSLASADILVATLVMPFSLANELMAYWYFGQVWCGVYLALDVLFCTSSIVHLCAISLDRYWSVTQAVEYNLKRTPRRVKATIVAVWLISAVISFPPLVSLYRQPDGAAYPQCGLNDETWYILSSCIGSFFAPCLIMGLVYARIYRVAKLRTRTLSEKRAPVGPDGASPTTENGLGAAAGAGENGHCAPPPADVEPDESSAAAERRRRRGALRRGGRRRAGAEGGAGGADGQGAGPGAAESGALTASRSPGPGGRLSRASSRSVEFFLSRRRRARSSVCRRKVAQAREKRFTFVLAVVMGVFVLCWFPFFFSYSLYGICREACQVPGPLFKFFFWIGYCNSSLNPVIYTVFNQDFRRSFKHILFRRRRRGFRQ
Test: In vitro activity assay to determine the inhibition of recombinant ADRA2C (CHO-K1 cells, aequorin bioluminescence)
Format: cell-based
Conditions: inhibition of noradrenaline-induced bioluminescence signal; some mean values from multiple determinations; read-out: ARα2C IC50
ASSAY METRIC: IC50 (nM)

Please review the entries below; each comes with its answer.
O=C(NCc1ncc(F)cc1F)c1cnc(N2CCC(N3CCCC(COCC4(C(F)F)CC4)C3)CC2)s1 (racemic) [Example 61] = 87
CCCC1CCCN(C2CCN(c3ncc(C(=O)NCc4ncc(F)cc4F)s3)CC2)C1 (racemic) [Example 121] = 0.65
C[C@@H]1CCCN(C2CCN(c3ncc(C(=O)NCc4ccccc4)s3)CC2)C1 [Example 73] = 219
COCCC1CCCN(C2CCN(c3ncc(C(=O)NCc4ncc(F)cc4F)s3)CC2)C1 (stereo not shown) [Example 148] = 1.3

P. C[C@@H]1CCCN(C2CCN(c3ncc(C(=O)NCc4ncc(Cl)s4)s3)CC2)C1 [Example 56]
Q. O=C(NCc1ncc(F)cc1F)c1cnc(N2CCC(N3CCCC4(C3)CC4(F)F)CC2)s1 (racemic) [Example 65]
R. C[C@@H]1CCCN(C2CCN(c3nc(-c4ccccc4Cl)c(C(=O)NCc4ncc(F)cc4F)s3)CC2)C1 [Example 118]
S. C[C@@H]1CCCN(C2CCN(c3ncc(C(=O)NCc4c(Cl)cnn4C)s3)CC2)C1 [Example 79]
# input Sort ascending by IC50. Respond with the label ranking, as requested.
# output Q, R, S, P
(Q: 4.5 nM, R: 7.7 nM, S: 50.3 nM, P: 240 nM)

---

Biological target: human ADRA2C receptor (Homo sapiens (Human))
Assay: In vitro activity assay to determine the inhibition of recombinant ADRA2C (CHO-K1 cells, aequorin bioluminescence)
Type: cell-based
Conditions: inhibition of noradrenaline-induced bioluminescence signal; some mean values from multiple determinations; read-out: ARα2C IC50
ASSAY METRIC: IC50 (nM)

a. C[C@@H]1CCCN(C2CCN(c3ncc(C(=O)NCc4ncc(F)cc4Cl)s3)CC2)C1
b. CC1CCCN(C2CCN(c3ncc(C(=O)NCc4ncc(F)cc4F)s3)CC2)CC1 (single isomer, unassigned) [Example 104]
# input Problem: Given the entries a and b , determine which has the lower reported IC50. Pick one; state its label.
# output b

---

Target: human ADRA2C receptor (Homo sapiens (Human))
Test: In vitro activity assay to determine the inhibition of recombinant ADRA2C (CHO-K1 cells, aequorin bioluminescence)
Assay type: cell-based
Conditions: inhibition of noradrenaline-induced bioluminescence signal; some mean values from multiple determinations; read-out: ARα2C IC50
pIC50: −log10 of the molar value.
ASSAY METRIC: pIC50

Cc1ccnc(CNC(=O)c2cnc(N3CCC(N4CCC[C@@H](C)C4)CC3)s2)c1 = 5.62
CC(C)C1CCCN(C2CCN(c3ncc(C(=O)NCc4ncc(F)cc4F)s3)CC2)C1 (racemic) = 9.08

I. O=C(NCc1ncc(F)cc1F)c1cnc(N2CCC(N3CCC[C@@H](OCC4CC(F)(F)C4)C3)CC2)s1
II. O=C(NCc1ncc(F)cc1F)c1cnc(N2CCC(N3CCCC4(C3)CC4(F)F)CC2)s1 (single isomer, unassigned; ent-2) [Example 132]
III. O=C(NCc1ncc(F)cc1F)c1cnc(N2CCC(N3CCCC4(COC4)C3)CC2)s1
IV. O=C(NCc1ncc(F)cc1F)c1cnc(N2CCC(N3CCCC(OCC4CC4)C3)CC2)s1 (racemic)
V. C[C@@H]1CCCN(C2CCN(c3ncc(C(=O)NCc4ncc(F)cc4F)s3)CC2F)C1 (mixture of isomers) [Example 50]
# input In this exercise, place the 5 compounds in ascending sequence of their recorded pIC50. Form entry: labels listed in requested order.
# output III, V, I, IV, II

---

Target: human ADRA2C receptor (Homo sapiens (Human), UniProt P18825)
Test: In vitro activity assay to determine the inhibition of recombinant ADRA2C (CHO-K1 cells, aequorin bioluminescence)
Type: cell-based
Conditions: inhibition of noradrenaline-induced bioluminescence signal; some mean values from multiple determinations; read-out: ARα2C IC50
pIC50: −log10 of the molar value.
ASSAY METRIC: pIC50

These recorded examples may help you get a feel for the data.
Cc1cccc(CNC(=O)c2cnc(N3CCC(N4CCC[C@@H](C)C4)CC3)s2)c1 = 6.72
Cc1ccc(C(C)NC(=O)c2cnc(N3CCC(N4CCC[C@@H](C)C4)CC3)s2)cc1 (stereo partly drawn) = 6.10
Cc1ccc(CNC(=O)c2cnc(N3CCC(N4CCC[C@@H](C)C4)CC3)s2)cc1 = 6.00

1. O=C(NCc1ncc(F)cc1F)c1cnc(N2CCC(N3CCCC(OC(F)F)C3)CC2)s1 (racemic)
2. CC(C)(C)C1CCCN(C2CCN(c3ncc(C(=O)NCc4ncc(F)cc4F)s3)CC2)C1 (stereo not drawn)
3. C[C@@H]1CCCN(C2CCN(c3noc(C(=O)NCc4ncc(F)cc4F)n3)CC2)C1
# input Sort low-to-high on pIC50, please. The labels, placed in the requested order, form the answer.
# output 1, 3, 2
(1: 5.70, 3: 7.25, 2: 7.46)

---

Biological target: human ADRA2C receptor (Homo sapiens (Human), UniProt P18825)
Test: In vitro activity assay to determine the inhibition of recombinant ADRA2C (CHO-K1 cells, aequorin bioluminescence)
Assay type: cell-based
Conditions: inhibition of noradrenaline-induced bioluminescence signal; some mean values from multiple determinations; read-out: ARα2C IC50
ASSAY METRIC: IC50 (nM)

COc1cccc(CNC(=O)c2cnc(N3CCC(N4CCC[C@@H](C)C4)CC3)s2)c1 = 90.5

P. Cc1oc(N2CCC(N3CCC[C@@H](C)C3)CC2)nc1C(=O)NCc1ncc(F)cc1F
Q. C[C@@H]1CCCN(C2CCN(c3ncc(C(=O)NCc4ccncc4)s3)CC2)C1
# input Looking at P and Q , which one comes out lower in IC50 terms? # respond with the chosen item's label
# output P

---

Target: human ADRA2C receptor (Homo sapiens (Human), UniProt P18825)
Test: In vitro activity assay to determine the inhibition of recombinant ADRA2C (CHO-K1 cells, aequorin bioluminescence)
Assay type: cell-based
Details: inhibition of noradrenaline-induced bioluminescence signal; some mean values from multiple determinations; read-out: ARα2C IC50
ASSAY METRIC: IC50 (µM)

Study these solved cases before continuing.
O=C(NCc1ncc(F)cc1F)c1cnc(N2CCC(N3CCCC(C4CC4)C3)CC2)s1 (centres unmarked) = 0.019
Cc1cccnc1CNC(=O)c1cnc(N2CCC(N3CCC[C@@H](C)C3)CC2)s1 = 1.06
CC1CCCCN(C2CCN(c3ncc(C(=O)NCc4ncc(F)cc4F)s3)CC2)C1 (racemic) = 0.23
C[C@@H]1CCCN(C2CCN(c3ncc(C(=O)N(C)Cc4ccccc4)s3)CC2)C1 = 0.085
O=C(NCc1ncc(F)cc1F)c1cnc(N2CCC(N3CCC[C@@H](C(F)(F)F)C3)CC2)s1 = 0.026
C[C@@H]1CCCN(C2CCN(c3ncc(C(=O)NCc4ccc(Cl)cc4)s3)CC2)C1 = 0.015
CCOC1CCCN(C2CCN(c3ncc(C(=O)NCc4ncc(F)cc4F)s3)CC2)C1 (single isomer, unassigned) [Example 124] = 0.0029
Cc1nc(N2CCC(N3CCC[C@@H](C)C3)CC2)sc1C(=O)NCc1ncc(F)cc1F = 0.591

1. C[C@@H]1CCCN(C2CCN(c3ncc(C(=O)NCc4cc(F)ccc4Cl)s3)CC2)C1
2. O=C(NCc1ncc(F)cc1F)c1cnc(N2CCC(N3CCCC(CF)C3)CC2)s1 (racemic)
3. COc1ccc2c(c1)CCN(C1CCN(c3ncc(C(=O)NCc4ncc(F)cc4F)s3)CC1)C2
# input Your job: order these 3 records by IC50, ascending. Answer by naming the labels in the order asked.
# output 3, 2, 1

a. COCC1CCCN(C2CCN(c3ncc(C(=O)NCc4ncc(F)cc4F)s3)CC2)C1 (single isomer, unassigned) [Example 99]
b. O=C(NCc1ncc(F)cc1F)c1cnc(N2CCC(N3CCc4c(Cl)cccc4C3)CC2)s1
# input Could you determine which record has the numerically smaller IC50? Candidates: a and b Response format: the label of the selected entry.
# output b
